Reported binding signal values for a set of sequences
Target: HNF4alpha8 (COS-7 nuclear extract) (Homo sapiens, UniProt P41235-5 1-452)
Sequence: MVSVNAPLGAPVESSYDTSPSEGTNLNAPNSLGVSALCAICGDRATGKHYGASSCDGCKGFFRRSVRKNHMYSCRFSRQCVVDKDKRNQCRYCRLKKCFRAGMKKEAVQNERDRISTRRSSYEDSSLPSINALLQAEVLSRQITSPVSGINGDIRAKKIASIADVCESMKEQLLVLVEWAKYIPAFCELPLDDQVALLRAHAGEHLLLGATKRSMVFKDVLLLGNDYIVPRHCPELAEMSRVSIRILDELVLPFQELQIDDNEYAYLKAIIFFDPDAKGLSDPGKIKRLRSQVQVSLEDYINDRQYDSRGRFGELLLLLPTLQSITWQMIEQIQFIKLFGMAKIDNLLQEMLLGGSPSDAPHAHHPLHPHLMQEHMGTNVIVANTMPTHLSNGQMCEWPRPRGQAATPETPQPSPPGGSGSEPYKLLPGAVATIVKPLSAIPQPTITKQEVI
Test: protein-binding microarray; COS-7 nuclear extract on double-stranded Agilent 4x180k PBM; binding buffer, salt, pH and temperature not given in the material; high values mean tight binding
Conditions: chain copies: 2; label: 3' end of strand 1 on the slide; dsDNA, one strand shown
Over roughly 18,000 sequences, “log2 normalized intensity” has its median near 0.36; the highest 2% begin near 7.3. The sample as a whole holds a higher share of the highest values than the screen did.
Please respond with the number in log2 normalized intensity and leave the unit unwritten.

Recorded binding signal, per entry:
Chain	binding signal, log2 normalized intensity
TGACCTGGTACTATGACCTTTCACCTTTTAGCCTAGGGAGATTAGAGTATCGGTCGA	7.78
GAGTGACCTGGTATTGCAAGTATTTCACCCGCCTAGGGAGATTAGAGTATCGGTCGA	1.59
GGGTCAGTTTATCTAAGATTCCCCCTACCCGCCTAGGGAGATTAGAGTATCGGTCGA	4
CCCCCAAGGCATGGGACCTTTGCCCTTCTTGCCTAGGGAGATTAGAGTATCGGTCGA	6.71
GTTTCTCAAGTGATCGAAGGTCAACTTATCGCCTAGGGAGATTAGAGTATCGGTCGA	4.63
CTCGGCATCATGCCCTTTGGCCCCCAGAGCGCCTAGGGAGATTAGAGTATCGGTCGA	7.18

### Prompt Entry "ACCTTTGACCTGGTACTATGACCTTTCACCGCCTAGGGAGATTAGAGTATCGGTCGA" has what binding signal?
### Response 7.83

### Prompt Data request, read-out binding signal, for "TTCACCTTTCGCCCTTTGTCCTATGACTCTGCCTAGGGAGATTAGAGTATCGGTCGA"
### Response 5.44

### Prompt If you can, please state the reported binding signal value of "CAGGGTGGGGTCTCGCTGCTTCGGCCTTTGGCCTAGGGAGATTAGAGTATCGGTCGA" .
### Response 1.11

----------
Target: HNF4alpha8 (COS-7 nuclear extract) (Homo sapiens, UniProt P41235-5 1-452)
Sequence: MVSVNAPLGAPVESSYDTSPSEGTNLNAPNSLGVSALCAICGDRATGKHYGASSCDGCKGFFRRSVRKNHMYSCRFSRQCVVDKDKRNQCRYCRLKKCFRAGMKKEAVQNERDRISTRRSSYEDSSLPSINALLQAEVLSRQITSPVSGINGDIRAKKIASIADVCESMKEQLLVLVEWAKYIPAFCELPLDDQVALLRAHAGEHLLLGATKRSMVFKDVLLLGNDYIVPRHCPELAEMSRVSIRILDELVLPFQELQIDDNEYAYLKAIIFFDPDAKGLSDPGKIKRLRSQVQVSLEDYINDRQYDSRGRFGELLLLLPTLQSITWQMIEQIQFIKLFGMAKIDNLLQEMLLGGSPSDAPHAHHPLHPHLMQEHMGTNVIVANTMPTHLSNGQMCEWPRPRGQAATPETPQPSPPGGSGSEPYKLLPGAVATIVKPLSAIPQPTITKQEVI
Experiment: protein-binding microarray; COS-7 nuclear extract on double-stranded Agilent 4x180k PBM; binding buffer, salt, pH and temperature not given in the material; high values mean tight binding
Conditions: chain copies: 2; label: 3' end of strand 1 on the slide; dsDNA, one strand shown
Whole data set: some 18,000 sequences, median “log2 normalized intensity” near 0.36, cut for the highest 2% near 7.3. The sample holds the highest values, similar sequences and a random draw of the others, so the mix is not that of the screen.
Would you mind labelling by binding signal? At or over 5 log2 normalized intensity is Satisfied, under is Not satisfied.

Illustrative cases are given below, each with its answer.
Chain	System	Assigned Label
ACTTTGGACTTGGGACTTTCGAGTTAATGCGCCTAGGGAGATTAGAGTATCGGTCGA	HNF4alpha8 (COS-7 nuclear extract) (Homo sapiens, UniProt P41235-5 1-452)	Not satisfied
CTTTGTTTACTTAACCTTTGATCATATGCAGCCTAGGGAGATTAGAGTATCGGTCGA	HNF4alpha8 (COS-7 nuclear extract) (Homo sapiens, UniProt P41235-5 1-452)	Satisfied
GCCTGTCACCCAACCTCACCTAACCACATTGCCTAGGGAGATTAGAGTATCGGTCGA	HNF4alpha8 (COS-7 nuclear extract) (Homo sapiens, UniProt P41235-5 1-452)	Not satisfied
GGACTTGGGACTTTCGAGTTAATGCTGGAGGCCTAGGGAGATTAGAGTATCGGTCGA	HNF4alpha8 (COS-7 nuclear extract) (Homo sapiens, UniProt P41235-5 1-452)	Not satisfied
TCAGTTTCATTGCACTTTGCCCTCTCTTCAGCCTAGGGAGATTAGAGTATCGGTCGA	HNF4alpha8 (COS-7 nuclear extract) (Homo sapiens, UniProt P41235-5 1-452)	Satisfied
TTAGCTTCCTCCCTTGGAATGTGACCTTAGGCCTAGGGAGATTAGAGTATCGGTCGA	HNF4alpha8 (COS-7 nuclear extract) (Homo sapiens, UniProt P41235-5 1-452)	Satisfied
ATAATTCAGTTTCATTGCACTTTGCCCTCTGCCTAGGGAGATTAGAGTATCGGTCGA	HNF4alpha8 (COS-7 nuclear extract) (Homo sapiens, UniProt P41235-5 1-452)	Satisfied
GTCCAGAGTTTAAATGACCTCTGCCCTTCCGCCTAGGGAGATTAGAGTATCGGTCGA	HNF4alpha8 (COS-7 nuclear extract) (Homo sapiens, UniProt P41235-5 1-452)	Satisfied
TACAGGCGTGAGCCACCGCGCCCCGCCCCCGCCTAGGGAGATTAGAGTATCGGTCGA	HNF4alpha8 (COS-7 nuclear extract) (Homo sapiens, UniProt P41235-5 1-452)	Satisfied
CCTATGGTATGTATGGAATGTCACTTTCTGGCCTAGGGAGATTAGAGTATCGGTCGA	HNF4alpha8 (COS-7 nuclear extract) (Homo sapiens, UniProt P41235-5 1-452)	Not satisfied

We now examine a further sequence.
### Prompt Hello, I need to know if "GGGGAGGTGGGAAAAGAAATGTAGTGACAGGCCTAGGGAGATTAGAGTATCGGTCGA" has measured binding signal not below 5 log2 normalized intensity. Thanks!
### Response Not satisfied

----------
Measured binding signal, listed per entry for reference.
Target: HNF4alpha8 (COS-7 nuclear extract) (Homo sapiens, UniProt P41235-5 1-452)
Sequence: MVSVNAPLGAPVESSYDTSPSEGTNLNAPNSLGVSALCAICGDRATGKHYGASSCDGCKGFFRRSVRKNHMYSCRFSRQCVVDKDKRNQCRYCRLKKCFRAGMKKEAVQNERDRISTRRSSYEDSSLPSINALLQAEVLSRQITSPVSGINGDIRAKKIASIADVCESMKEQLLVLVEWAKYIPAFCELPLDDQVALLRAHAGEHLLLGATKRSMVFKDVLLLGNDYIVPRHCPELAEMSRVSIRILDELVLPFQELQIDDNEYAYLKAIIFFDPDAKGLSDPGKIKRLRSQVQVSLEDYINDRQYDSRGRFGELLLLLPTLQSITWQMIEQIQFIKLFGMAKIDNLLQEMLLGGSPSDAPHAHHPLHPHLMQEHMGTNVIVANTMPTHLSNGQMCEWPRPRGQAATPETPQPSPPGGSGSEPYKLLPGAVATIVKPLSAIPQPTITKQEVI
Test: protein-binding microarray; COS-7 nuclear extract on double-stranded Agilent 4x180k PBM; binding buffer, salt, pH and temperature not given in the material; high values mean tight binding
Conditions: chain copies: 2; label: 3' end of strand 1 on the slide; dsDNA, one strand shown
Whole data set: some 18,000 sequences, median “log2 normalized intensity” near 0.36, cut for the highest 2% near 7.3. The full list was thinned out, with the highest values kept by preference.
Output spec: scalar in log2 normalized intensity, unitless text.

Chain	System	binding signal / log2 normalized intensity
CAGGTATTTGCTCTGTGATAGCCTTTTACCGCCTAGGGAGATTAGAGTATCGGTCGA	HNF4alpha8 (COS-7 nuclear extract) (Homo sapiens, UniProt P41235-5 1-452)	1.5
CTGGGCCCTGCCTGACCTGCCCTTTGTCCCGCCTAGGGAGATTAGAGTATCGGTCGA	HNF4alpha8 (COS-7 nuclear extract) (Homo sapiens, UniProt P41235-5 1-452)	6.91
AGCTGACCCCAAAACCCCCAAAGGTGAGTAGCCTAGGGAGATTAGAGTATCGGTCGA	HNF4alpha8 (COS-7 nuclear extract) (Homo sapiens, UniProt P41235-5 1-452)	4.29
TGCAGTGTCCATGGTGACCATGTGATGTGAGCCTAGGGAGATTAGAGTATCGGTCGA	HNF4alpha8 (COS-7 nuclear extract) (Homo sapiens, UniProt P41235-5 1-452)	1.26
AGCAATACATTGAACTTTGAACACCTCTTCGCCTAGGGAGATTAGAGTATCGGTCGA	HNF4alpha8 (COS-7 nuclear extract) (Homo sapiens, UniProt P41235-5 1-452)	6.54
ATGTGCCCTTTGTACCTGGGGCAAACATCAGCCTAGGGAGATTAGAGTATCGGTCGA	HNF4alpha8 (COS-7 nuclear extract) (Homo sapiens, UniProt P41235-5 1-452)	5.3
CCCGGACCAGGCCGGGTCACGTGGGTCCAGGCCTAGGGAGATTAGAGTATCGGTCGA	HNF4alpha8 (COS-7 nuclear extract) (Homo sapiens, UniProt P41235-5 1-452)	3.63
CCCTTCCTGCTTCCAGGCTTGTACCTTGACGCCTAGGGAGATTAGAGTATCGGTCGA	HNF4alpha8 (COS-7 nuclear extract) (Homo sapiens, UniProt P41235-5 1-452)	3.23
CAGATAATTACCTGGACTCTAGAGCCAGACGCCTAGGGAGATTAGAGTATCGGTCGA	HNF4alpha8 (COS-7 nuclear extract) (Homo sapiens, UniProt P41235-5 1-452)	1.75
CAATAAGCAATACATTGAACTTTGAACACCGCCTAGGGAGATTAGAGTATCGGTCGA	HNF4alpha8 (COS-7 nuclear extract) (Homo sapiens, UniProt P41235-5 1-452)	7.99

### Prompt Consider the sequence "GGCGTGGACTTCGCTCCGCCGCTAGGTGGCGCCTAGGGAGATTAGAGTATCGGTCGA" and give its measured binding signal.
### Response 3.13

### Prompt Please look up its binding signal: "TTCAGGCAGGAATGCTGAACAATTGATTTAGCCTAGGGAGATTAGAGTATCGGTCGA"
### Response -0.858
